Hello, the source for this data is patent US20250313574A1, in case you need it.

ASSAY SYSTEM: Recombinant human CD33 protein (Homo sapiens (Human), UniProt P20138)
Sequence (P20138 18-259): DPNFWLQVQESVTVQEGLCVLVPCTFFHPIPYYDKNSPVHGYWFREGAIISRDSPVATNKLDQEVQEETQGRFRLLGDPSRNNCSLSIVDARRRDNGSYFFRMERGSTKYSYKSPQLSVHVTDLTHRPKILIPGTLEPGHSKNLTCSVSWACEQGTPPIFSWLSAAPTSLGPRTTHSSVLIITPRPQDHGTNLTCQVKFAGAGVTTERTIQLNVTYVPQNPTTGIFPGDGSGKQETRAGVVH
METHOD SUMMARY: CD33 competitive binding assay for HTS drug screen (fluorescent multivalent sialic acid probe)
OBSERVATION TYPE: EC50 (nM)

CC(=O)N[C@H]1[C@H]([C@H](O)[C@H](O)CNC(=O)c2ccc(F)c(Br)c2)O[C@@](CCN2CCOC[C@@]23CCN(C(=O)OC(C)(C)C)C3)(C(=O)O)C[C@@H]1O [A-132]
51

A = CC(=O)N[C@H]1[C@H]([C@H](O)[C@H](O)CNC(=O)c2cc(C)c(O)c(C)c2)O[C@@](CCN2CCOC[C@@]23CCN(C(=O)N(C)Cc2ccccc2)C3)(C(=O)O)C[C@@H]1O [A-063]
B = CC(=O)N[C@H]1[C@H]([C@H](O)[C@H](O)CNC(=O)c2cnc3[nH]nc(C)c3c2)O[C@@](CCN2CCOC[C@@]23CCN(C(=O)OC(C)(C)C)C3)(C(=O)O)C[C@@H]1O [A-127]
Form field 'greater EC50' accepts A or B ; which applies? Return value: the label identifying the chosen record. A

---

ASSAY SYSTEM: Recombinant Human Siglec-3/CD33 protein (His-CD33) (Homo sapiens (Human))
Sequence (P20138 18-259): as above
METHOD SUMMARY: Differential scanning fluorimetry (DSF) thermal shift assay
Type: binding
CONDITION PARAMETERS: thermal melt shift of 0.5 μM CD33 protein with 50 μM compound
OBSERVATION TYPE: DSF (dTmD)

COc1cc(C(=O)NC[C@@H](O)[C@@H](O)[C@@H]2O[C@@](CCN3CCOC[C@@]34CCN(C(=O)OC(C)(C)C)C4)(C(=O)O)C[C@H](O)[C@H]2NC(C)=O)cc(OC)c1O
11.0

I = CC(=O)N[C@H]1[C@H]([C@H](O)[C@H](O)CNC(=O)c2ccc3[nH]cnc3c2)O[C@@](CCN2CCOC[C@@]23CCN(C(=O)OC(C)(C)C)C3)(C(=O)O)C[C@@H]1O
II = CC(=O)N[C@H]1[C@H]([C@H](O)[C@H](O)CNC(=O)c2cc(C)c(O)c(C)c2)O[C@@](CCN2CCOC[C@@]23CCN(c2cnccn2)C3)(C(=O)O)C[C@@H]1O
Form field 'greater DSF (dTmD)' accepts I or II ; which applies? Return value: the label identifying the chosen record. I

---

ASSAY SYSTEM: Recombinant Human Siglec-3/CD33 protein (His-CD33) (Homo sapiens (Human))
METHOD SUMMARY: Differential scanning fluorimetry (DSF) thermal shift assay
Type: binding
CONDITION PARAMETERS: difference in thermal melt of CD33 protein (0.5 μM) with 50 μM compound
OBSERVATION TYPE: DSF (dTmD) (°C)

CC(=O)N[C@H]1[C@H]([C@H](O)[C@H](O)CNC(=O)c2cc(C)c(O)c(C)c2)O[C@](CO)(CCN2CCOC[C@@]23CCN(C(=O)OC(C)(C)C)C3)C[C@@H]1O
−0.3

a = CC(=O)N[C@H]1[C@H]([C@H](O)[C@H](O)CNC(=O)c2cc(C)c(O)c(C)c2)O[C@](C#N)(CCN2CCOC[C@@]23CCN(C(=O)OC(C)(C)C)C3)C[C@@H]1O
b = CC(=O)N[C@H]1[C@H]([C@H](O)[C@H](O)CNC(=O)c2cc(C)c(O)c(C)c2)O[C@@](CC2OC(C)(C)O[C@H]2c2cccc(NC(=O)C(=O)[C@H](C)c3cc(C4CC4)no3)c2)(C(=O)O)C[C@@H]1O (stereo partly drawn)
Form field 'greater DSF (dTmD)' accepts a or b ; which applies? Return value: the label identifying the chosen record. b

---

ASSAY SYSTEM: Recombinant human CD33 protein (Homo sapiens (Human))
METHOD SUMMARY: CD33 competitive binding assay for HTS drug screen (fluorescent multivalent sialic acid probe)
OBSERVATION TYPE: EC50 (nM)

1 = CC(=O)N[C@H]1[C@H]([C@H](O)[C@H](O)CNC(=O)c2cc(C)c3[nH]ncc3c2)O[C@@](CCN2CCOC[C@@]23CCN(C(=O)OC(C)(C)C)C3)(C(=O)O)C[C@@H]1O [A-130]
2 = COC(C)(C)C(=O)N1CC[C@@]2(COCCN2CC[C@]2(C(=O)O)C[C@H](O)[C@@H](NC(C)=O)[C@H]([C@H](O)[C@H](O)CNC(=O)c3cc(C)c(O)c(C)c3)O2)C1 [A-085]
Form field 'greater EC50' accepts 1 or 2 ; which applies? Return value: the label identifying the chosen record. 2

---

ASSAY SYSTEM: Recombinant human CD33 protein (Homo sapiens (Human), UniProt P20138)
METHOD SUMMARY: CD33 competitive binding assay for HTS drug screen (fluorescent multivalent sialic acid probe)
OBSERVATION TYPE: EC50 (nM)

CC(=O)N[C@H]1[C@H]([C@H](O)[C@H](O)CNC(=O)c2cc(Br)ccc2F)O[C@@](CCN2CCOC[C@@]23CCN(C(=O)OC(C)(C)C)C3)(C(=O)O)C[C@@H]1O [A-172]
820

1 = CC(=O)N[C@H]1[C@H]([C@H](O)[C@H](O)CNC(=O)c2cc(F)c(C(F)(F)F)c(F)c2)O[C@@](CCN2CCOC[C@@]23CCN(C(=O)OC(C)(C)C)C3)(C(=O)O)C[C@@H]1O [A-166]
2 = CC(=O)N[C@H]1[C@H]([C@H](O)[C@H](O)CNC(=O)c2ccc(C(F)(F)F)c(O)c2)O[C@@](CCN2CCOC[C@@]23CCN(C(=O)OC(C)(C)C)C3)(C(=O)O)C[C@@H]1O [A-146]
3 = CC(=O)N[C@H]1[C@H]([C@H](O)[C@H](O)CNC(=O)c2ccc(C)c(C(F)(F)F)c2)O[C@@](CCN2CCOC[C@@]23CCN(C(=O)OC(C)(C)C)C3)(C(=O)O)C[C@@H]1O [A-145]
4 = CC(=O)N[C@H]1[C@H]([C@H](O)[C@H](O)CNC(=O)c2cc(C)c(O)c(C)c2)O[C@@](CCN2CCOC[C@@]23CCN(C(=O)N(C)c2ccccc2)C3)(C(=O)O)C[C@@H]1O [A-059]
5 = COC(=O)[C@@]1(CCN2CCOC[C@@]23CCN(C(=O)OC(C)(C)C)C3)C[C@H](O)[C@@H](NC(C)=O)[C@H]([C@H](O)[C@H](O)CNC(=O)c2cc(C)c(O)c(C)c2)O1 [A-361]
Could you please order the items by EC50, going from the lowest number to the highest? Respond with the label ranking, as requested. 4, 2, 3, 1, 5
(4: 60 nM, 2: 262 nM, 3: 610 nM, 1: 4000 nM, 5: 49000 nM)

---

ASSAY SYSTEM: Recombinant human CD33 protein (Homo sapiens (Human))
METHOD SUMMARY: CD33 competitive binding assay for HTS drug screen (fluorescent multivalent sialic acid probe)
pEC50: −log10 of the molar value.
OBSERVATION TYPE: pEC50

CC(=O)N[C@H]1[C@H]([C@H](O)[C@H](O)CNC(=O)c2ccc(C)c(C)c2)O[C@@](CCN2CCOC[C@@]23CCN(C(=O)OC(C)(C)C)C3)(C(=O)O)C[C@@H]1O [A-180]
7.13
CC(=O)N[C@H]1[C@H]([C@H](O)[C@H](O)CNC(=O)c2cc(C)c(O)c(C)c2)O[C@@](CC2OC(C)(C)O[C@H]2c2cccc(CN3CCOCC3)c2)(C(=O)O)C[C@@H]1O (some centres unmarked) [A-313]
4.92

P = CC(=O)N[C@H]1[C@H]([C@H](O)[C@H](O)CNC(=O)c2cc(C)c(O)c(C)c2)O[C@@](CCN2CCOC[C@@]23CCN(C(=O)OC(C)(C)C)C3)(C(=O)NC#N)C[C@@H]1O [A-366]
Q = Cc1cc(C(=O)NC[C@@H](O)[C@@H](O)[C@H]2C[C@@H](O)C[C@](CCN3CCOC[C@@]34CCN(C(=O)OC(C)(C)C)C4)(C(=O)O)O2)cc(C)c1O [A-202]
R = CC(=O)N[C@H]1[C@H]([C@H](O)[C@H](O)CNC(=O)c2ccc3[nH]ccc3c2)O[C@@](CCN2CCOC[C@@]23CCN(C(=O)OC(C)(C)C)C3)(C(=O)O)C[C@@H]1O [A-129]
Order the records by pEC50, with each subsequent value no larger than the one before. Respond with the label ranking, as requested. R, Q, P

---

ASSAY SYSTEM: Recombinant human CD33 protein (Homo sapiens (Human), UniProt P20138)
METHOD SUMMARY: CD33 competitive binding assay for HTS drug screen (fluorescent multivalent sialic acid probe)
OBSERVATION TYPE: EC50 (nM)

CC(=O)N[C@H]1[C@H]([C@H](O)[C@H](O)CNC(=O)c2cc(C)c(O)c(C)c2)O[C@@](CCN2CCOC[C@@]23CCN(C(=O)N[C@H](C)c2ccc(Br)cc2)C3)(C(=O)O)C[C@@H]1O
153

A = CC(=O)N[C@H]1[C@H]([C@H](O)[C@H](O)CNC(=O)/C=C/c2cn[nH]c2)O[C@@](CCN2CCOC[C@@]23CCN(C(=O)OC(C)(C)C)C3)(C(=O)O)C[C@@H]1O
B = Cc1cc(C(=O)NCC(O)C[C@@H]2O[C@@](C/C=C/C3CCN(C(=O)OC(C)(C)C)C3)(C(=O)O)CCC2C)cc(C)c1O (single isomer, unassigned) [A-210]
C = CC(=O)N[C@H]1[C@H]([C@H](O)[C@H](O)CNC(=O)c2cc(C)c(O)c(C)c2)O[C@@](C[C@@H]2COC[C@]3(CCN(C(=O)OC(C)(C)C)C3)N2)(C(=O)O)C[C@@H]1O [A-229]
Could you please order the items by EC50, going from the lowest number to the highest? Respond with the label ranking, as requested. C, A, B
